# Test system: PC3 (Prostate)
# testDetails: In vitro cytotoxicity of 41, cancer cell-line panel
# Assay type: cell-based
# assaySetup: 72 hour incubation
measuredMetric: IC50 (nM)

- compound: "COc1cc2c(cc1OCCCC(=O)Nc1cc(C(=O)Nc3ccc(-c4cc(C(=O)Nc5ccc(N)cc5)n(C)c4)cc3)n(C)c1)N=C[C@@H]1CCCCN1C2=O [Compound 41]"
  experimentalSystem: "PC3 (Prostate)"
  measurementUnit: "nM"
  experimentalResult: 0.36

---

# Test system: A375 (Skin)
# testDetails: In vitro cytotoxicity of 41, cancer cell-line panel
# Format: cell-based
# assaySetup: Homo sapiens, A-375; 72 hour incubation
pIC50: −log10 of the molar value.

- entrySmiles: "COc1cc2c(cc1OCCCC(=O)Nc1cc(C(=O)Nc3ccc(-c4cc(C(=O)Nc5ccc(N)cc5)n(C)c4)cc3)n(C)c1)N=C[C@@H]1CCCCN1C2=O"
  pIC50: 9.55
